Let's look at some sequences and their measured recombinant UMI read abundance (log10).
- PROTOCOL DESCRIPTION: recombinant UMI read abundance after kanamycin selection (control-corrected) (log10(CPM+1)); higher = more efficient recombination; extreme values may be limits of the assay; sequences stand for … in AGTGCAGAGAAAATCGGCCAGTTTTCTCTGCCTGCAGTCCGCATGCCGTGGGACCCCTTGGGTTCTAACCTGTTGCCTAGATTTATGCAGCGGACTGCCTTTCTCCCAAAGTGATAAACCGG…AGGTTGGTTTCACT; site = the 11-nt donor;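 note: IS621 bridge recombinase in Escherichia coli cells against a fixed T5 target plasmid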
ENDPOINT: recombinant UMI read abundance (log10)

[[record]]
residue_string = "AACCACTCATGGACCGGTTTTCCCGGTAATCCGTATTTGCC (site AACCACTCTGG)"
test_value = 3.01

[[record]]
residue_string = "TTTAGAACATGGACCGGTTTTCCCGGTAATCCGTATTTGGC (site CTTAGAACTGC)"
test_value = 0

[[record]]
residue_string = "AGGACACCATGGACCGGTTTTCCCGGTAATCCGTATTTGTA (site AGGACACCTTA)"
test_value = 0.189

[[record]]
residue_string = "CCAGTGTCATGGACCGGTTTTCCCGGTAATCCGTATTTGCA (site ACAGTATCTTG)"
test_value = 0

[[record]]
residue_string = "AAGAATACATGGACCGGTTTTCCCGGTAATCCGTATTTGCA (site TAGAATACTTG)"
test_value = 1.7

[[record]]
residue_string = "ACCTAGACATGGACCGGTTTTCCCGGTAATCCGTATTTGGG (site ACCTAGACTTC)"
test_value = 0.00986

[[record]]
residue_string = "TGTGCCCCATGGACCGGTTTTCCCGGTAATCCGTATTTGTA (site TGTACCCCTTA)"
test_value = 0.126

[[record]]
residue_string = "CCGTTAACATGGACCGGTTTTCCCGGTAATCCGTATTTGTG (site CCGTTAGCTCA)"
test_value = 0.182

[[record]]
residue_string = "CGGAAATCATGGACCGGTTTTCCCGGTAATCCGTATTTGTT (site CGGAATCCTAA)"
test_value = 0

[[record]]
residue_string = "CGGAATACATGGACCGGTTTTCCCGGTAATCCGTATTTGAT (site CGGAATCCTAA)"
test_value = 0

[[record]]
residue_string = "TCCTAGGCATGGACCGGTTTTCCCGGTAATCCGTATTTGGT (site TACTAGGCTAC)"
test_value = 0.0272

[[record]]
residue_string = "AAATGAGCATGGACCGGTTTTCCCGGTAATCCGTATTTGGG (site TAATGAGCTCC)"
test_value = 0.46

[[record]]
residue_string = "TATCTGGCATGGACCGGTTTTCCCGGTAATCCGTATTTGTG (site TATGTGGCTCA)"
test_value = 0.00259

[[record]]
residue_string = "TCAGAGTCATGGACCGGTTTTCCCGGTAATCCGTATTTGCG (site TCAGAGCCTCG)"
test_value = 0.625

[[record]]
residue_string = "CCGTTTCCATGGACCGGTTTTCCCGGTAATCCGTATTTGCT (site CCGTTTTCTAG)"
test_value = 0

[[record]]
residue_string = "GTAGTATCATGGACCGGTTTTCCCGGTAATCCGTATTTGAC (site CTAGTATCTGT)"
test_value = 2.47

[[record]]
residue_string = "CGTGGAACATGGACCGGTTTTCCCGGTAATCCGTATTTGGT (site CGTGGAACTAG)"
test_value = 0

[[record]]
residue_string = "GAGCTACCATGGACCGGTTTTCCCGGTAATCCGTATTTGGC (site GAGCTACCTGC)"
test_value = 0

[[record]]
residue_string = "CCAGTATCATGGACCGGTTTTCCCGGTAATCCGTATTTGCC (site ACAGTATCTTG)"
test_value = 0.0067

[[record]]
residue_string = "GTGCATCCATGGACCGGTTTTCCCGGTAATCCGTATTTGGT (site GTGCATTCTAC)"
test_value = 0.438

[[record]]
residue_string = "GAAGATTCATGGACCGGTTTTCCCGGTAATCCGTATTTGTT (site GAAGACTCTAA)"
test_value = 1.24

[[record]]
residue_string = "AACTAGACATGGACCGGTTTTCCCGGTAATCCGTATTTGGG (site ACCTAGACTCC)"
test_value = 0.0296

[[record]]
residue_string = "ACGCGAACATGGACCGGTTTTCCCGGTAATCCGTATTTGTC (site ACACGAACTGA)"
test_value = 2.62

[[record]]
residue_string = "ATAGTCGCATGGACCGGTTTTCCCGGTAATCCGTATTTGCG (site ATAGTCGCTCG)"
test_value = 1.37

[[record]]
residue_string = "ATTAGAACATGGACCGGTTTTCCCGGTAATCCGTATTTGGC (site CTTAGAACTGC)"
test_value = 1.73

[[record]]
residue_string = "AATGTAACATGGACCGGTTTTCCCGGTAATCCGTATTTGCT (site AATGAAACTAG)"
test_value = 0.0158

[[record]]
residue_string = "CTTGCGGCATGGACCGGTTTTCCCGGTAATCCGTATTTGGG (site CTTGCGGCTCC)"
test_value = 0.0147

[[record]]
residue_string = "AGGTACACATGGACCGGTTTTCCCGGTAATCCGTATTTGCA (site AGGAAGACTTG)"
test_value = 0

[[record]]
residue_string = "CACGGCCCATGGACCGGTTTTCCCGGTAATCCGTATTTGTG (site CACGGCCCTTA)"
test_value = 0.00311


The reported measurements were obtained from the supplement of paper PMC11208160.
